Molecular target: T1, human IL-25 (human, UniProt Q9H293 33-177)
T1 construct: also called IL-17E; rhIL-25
T1 sequence: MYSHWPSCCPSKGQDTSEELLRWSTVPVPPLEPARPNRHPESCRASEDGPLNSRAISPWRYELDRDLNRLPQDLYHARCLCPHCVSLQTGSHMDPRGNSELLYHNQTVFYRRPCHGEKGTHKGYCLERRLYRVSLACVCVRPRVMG
Experiment: Receptor inhibition (column sub-head 'Panel A/ B'): bead-based ECLIA, inhibition of IL-25 binding to the IL-25 receptor
MEASURED_PROPERTY: pIC50
Value format note: pIC50 is -log10 of concentration (mol/L); just state the number.

State its pIC50: I25M32 (antibody, V domains shown, One of the 9 candidate IgG1 mAbs of the combinatorial library based on huDDG91) VH: EVQLVESGAEVKKPGASVKVSCKASGYSFSGYTMNWVRQAPGQRLEWMGLINPYNGGTSYNQNFKGRVTLTVDTSASTAYLELNSLRSEDTGVYYCAREDYDSWTFFAMDYWGQGTLVTVS VL: DIQMTQSPSSLSASVGDRVTITCSASQGINEYLNWYQQKPGKVPKLLIYYTSSLHSGVPSRFSGSGSGTDFTLTISSLQPEDVATYYCQQYINFPYTFGQGTKLEIK
10.96

Complete the entry with pIC50 for I25M34 (antibody, V domains shown, One of the 9 candidate IgG1 mAbs of the combinatorial library based on huDDG91) VH: EVQLVESGAEVKKPGASVKVSCKASGYSFSGYTMNWVRQAPGQRLEWMGLINPYNGGTSYNQNFKGRVTLTVDTSASTAYLELNSLRSEDTGVYYCAREDFDSWTYFAMDYWGQGTLVTVS VL: DIQMTQSPSSLSASVGDRVTITCSASQGINEYLNWYQQKPGKVPKLLIYYTSSLHSGVPSRFSGSGSGTDFTLTISSLQPEDVATYYCQQYINFPYTFGQGTKLEIK
10.89

Entry M6 antibody (antibody, human IgG1, kappa, V domains shown, Humanized IgG1 mAb with kappa light chain, a variant of huDDG91 with three substitutions in light chain CDR3) VH: EVQLVESGAEVKKPGASVKVSCKASGYSFSGYTMNWVRQAPGQRLEWMGLINPYNGGTSYNQNFKGRVTLTVDTSASTAYLELNSLRSEDTGVYYCAREDYDGYLYFAMDYWGQGTLVTVSS VL: DIQMTQSPSSLSASVGDRVTITCSASQGISNYLNWYQQKPGKVPKLLIYYTSSLHSGVPSRFSGSGSGTDFTLTISSLQPEDVATYYCQQYLAFPYTFGQGTKLEIKR needs its pIC50 filled in; supply it.
10.92
